SYSTEM TESTED: NADPH oxidase 2 (Homo sapiens)
TEST PROTOCOL: NOX2-dependent H2O2 signal modulators, primary screen, NOX inhibitor project, cell-based, HEK293-NOX2, PMA-stimulated, Amplex Red fluorescence (AID 1159); note: test concentration not given here
CONDITIONS USED: 45 min, higher = more signal, called active from +8 up or from −8 down
Entry flag: TRUE if z-score reaches -0.5; FALSE if it does not.

Illustrative cases are given below, each with its answer.
COMPOUND | SYSTEM TESTED | QUALITATIVE LABEL
CC(C)CNC(=O)[C@@]1(c2ccc([N+](=O)[O-])cc2)CC(=O)N(CC23CC4CC(CC(C4)C2)C3)[C@@H]1c1ccc(CO)cc1I | NADPH oxidase 2 (Homo sapiens) | TRUE
CC(=CC1CCCCC1)[C@@H](NC(=O)c1ccc(C(F)(F)F)cc1)c1ccc(-c2ccccc2)cc1 | NADPH oxidase 2 (Homo sapiens) | FALSE
O=C(CS)NCCCCCCNC(=O)[C@H]1C[C@H]2C(=O)NCC(=O)N2[C@H]1c1ccc(O)cc1 | NADPH oxidase 2 (Homo sapiens) | TRUE
CC(C)CNC(=O)[C@@]1(c2ccc([N+](=O)[O-])cc2)CC(=O)N(CC23CC4CC(CC(C4)C2)C3)[C@@H]1c1ccc(CO)cc1 | NADPH oxidase 2 (Homo sapiens) | TRUE
COC(=O)[C@@]1(Cc2ccccc2)[C@H]2c3cc(C(=O)N(C)C)n(Cc4c(-c5ccccc5)noc4C)c3C[C@H]2CN1C(=O)c1ccccc1 | NADPH oxidase 2 (Homo sapiens) | TRUE

Decide: z-score of C=C(COC)/C(=C/C[C@H](OC(=O)c1ccncc1)c1cccc(OCCO)c1)c1cc(C(=O)OC)ccc1OC >= -0.5? TRUE

Entry C[C@]1(C(=O)NCc2ccccc2)c2ccccc2C(=O)N(Cc2ccc(OC(F)(F)F)cc2)[C@H]1c1ccc(CO)cc1 : is its z-score no less than -0.5? FALSE

Quick check, z-score >= -0.5? COCCOC(=O)N1C(=O)[C@@]2(c3cc(C#CC4=CCCCC4)ccc31)[C@H](C(=O)N1CCc3cc(OC)c(OC)cc3C1)[C@H]1C(=O)O[C@H](c3ccccc3)[C@H](c3ccccc3)N1[C@@H]2c1ccccc1OCCO TRUE

Textbook exercise: given the entry C=CCN1C(=O)[C@]2(O[C@H](CCO)[C@@H]([Si](C)(C)c3ccc(OC)cc3)[C@@H]2C)c2cc(NC(=O)[C@H](C)O)ccc21 , state whether its z-score is greater than or equal to -0.5. TRUE

hey, is z-score for this one >= -0.5? CC=CC(O)C1C=CC2C(=O)N(c3ccccc3)C(=O)C2N1Nc1ccc(C(C)C)cc1 (centres undefined) FALSE

Is z-score for N[C@@H](Cc1ccccc1)Cn1cc(-c2ccccc2)nn1 at or above -0.5? TRUE
